Entries and their measured inhibition of growth at 10 µM follow.
System: CAKI-1
Test: Growth inhibition of human Caki1 cells at 10 uM after 48 hrs by sulforhodamine B assay relative to control
Type: functional
Conditions: CAKI-1, 48 h, read-out: GI
Measurement type: inhibition of growth at 10 µM

1. O=C(CCN1c2ccccc2Sc2ccccc21)NCc1cn(CC(=O)c2ccc(F)cc2)nn1	17%
2. O=C(CN1c2ccccc2Sc2ccccc21)NCc1cn(CC(=O)c2ccc(Br)cc2)nn1	13%
3. O=C(CCN1c2ccccc2Sc2ccccc21)NCc1cn(CC(=O)c2ccc(Cl)cc2)nn1	32%
4. O=C(CCN1c2ccccc2Sc2ccccc21)NCc1cn(CC(=O)c2ccc(Br)cc2)nn1	37%

----------
Target: Protein farnesyltransferase (Homo sapiens, UniProt P49354+P49356)
Test: Inhibition of partially purified human recombinant FTase at 100 uM measured for 15 mins by automated fluorescence based assay relative to control
Format: protein-complex assay
Entries and their measured inhibition follow.
Measurement type: inhibition (%)

1) O=C(CCN1c2ccccc2Sc2ccccc21)OCc1cn(CC(=O)c2ccc(F)cc2)nn1	35.2
2) N#Cc1ccc(C(=O)Cn2cc(CNC(=O)CN3c4ccccc4Sc4ccccc43)nn2)cc1	24.9
3) Cc1ccc(C(=O)Cn2cc(CNC(=O)CN3c4ccccc4Sc4ccccc43)nn2)cc1	19
4) O=C(CN1c2ccccc2Sc2ccccc21)OCc1cn(CC(=O)c2ccc(Br)cc2)nn1	35.5
5) O=C(CN1c2ccccc2Sc2ccccc21)NCc1cn(CC(=O)N2c3ccccc3Sc3ccc(Cl)cc32)nn1	0
6) N#Cc1ccc(C(=O)Cn2cc(COC(=O)CN3c4ccccc4Sc4ccccc43)nn2)cc1	20.7
7) O=C(CN1c2ccccc2Sc2ccccc21)OCc1cn(CC(=O)c2ccc(F)cc2)nn1	31.9
8) Cc1ccc(C(=O)Cn2cc(COC(=O)CCN3c4ccccc4Sc4ccccc43)nn2)cc1	10.7
9) Cc1ccc(C(=O)Cn2cc(CNC(=O)CCN3c4ccccc4Sc4ccccc43)nn2)cc1	44.2
10) COc1ccc(C(=O)Cn2cc(CNC(=O)CCN3c4ccccc4Sc4ccccc43)nn2)cc1	29.3
11) COc1ccc(C(=O)Cn2cc(CNC(=O)CN3c4ccccc4Sc4ccccc43)nn2)cc1	24.4
